Test: Selectivity index, ratio of CC50 for MDCK cells to IC50 for antiviral activity against Influenza A virus (A/Hong Kong/4801/2014 (H3N2))
Type: toxicity
Settings: dog, read-out: Ratio CC50/IC50
reported endpoint: selectivity ratio

Before answering, review these 2 worked examples.
Provide only the value of recorded selectivity ratio for `CC1(C)CC[C@]2(C(=O)NCCCCCc3cn(CC(CO)(Cn4cc(CCCCCNC(=O)[C@]56CCC(C)(C)C[C@H]5C5=CC[C@@H]7[C@@]8(C)CC[C@H](O)C(C)(C)[C@@H]8CC[C@@]7(C)[C@]5(C)CC6)nn4)Cn4cc(CCCCCNC(=O)[C@]56CCC(C)(C)C[C@H]5C5=CC[C@@H]7[C@@]8(C)CC[C@H](O)C(C)(C)[C@@H]8CC[C@@]7(C)[C@]5(C)CC6)nn4)nn3)CC[C@]3(C)C(=CC[C@@H]4[C@@]5(C)CC[C@H](O)C(C)(C)[C@@H]5CC[C@]43C)[C@@H]2C1`
> 83.3

Provide only the value of recorded selectivity ratio for `CC1(C)CC[C@]2(C(=O)NCCCc3cn(Cc4cc(Cn5cc(CCCNC(=O)[C@]67CCC(C)(C)C[C@H]6C6=CC[C@@H]8[C@@]9(C)CC[C@H](O)C(C)(C)[C@@H]9CC[C@@]8(C)[C@]6(C)CC7)nn5)cc(Cn5cc(CCCNC(=O)[C@]67CCC(C)(C)C[C@H]6C6=CC[C@@H]8[C@@]9(C)CC[C@H](O)C(C)(C)[C@@H]9CC[C@@]8(C)[C@]6(C)CC7)nn5)c4)nn3)CC[C@]3(C)C(=CC[C@@H]4[C@@]5(C)CC[C@H](O)C(C)(C)[C@@H]5CC[C@]43C)[C@@H]2C1`
> 37.5

Please examine the following record next.
Provide only the value of recorded selectivity ratio for `CC1(C)CC[C@]2(C(=O)NCCCCc3cn(Cc4cc(Cn5cc(CCCCNC(=O)[C@]67CCC(C)(C)C[C@H]6C6=CC[C@@H]8[C@@]9(C)CC[C@H](O)C(C)(C)[C@@H]9CC[C@@]8(C)[C@]6(C)CC7)nn5)cc(Cn5cc(CCCCNC(=O)[C@]67CCC(C)(C)C[C@H]6C6=CC[C@@H]8[C@@]9(C)CC[C@H](O)C(C)(C)[C@@H]9CC[C@@]8(C)[C@]6(C)CC7)nn5)c4)nn3)CC[C@]3(C)C(=CC[C@@H]4[C@@]5(C)CC[C@H](O)C(C)(C)[C@@H]5CC[C@]43C)[C@@H]2C1`
> 21.8
